- Procedure Summary: Cytotoxicity on normal mesenchymal stem cells
- Type: cell-based
- Condition Summary: human bone marrow-derived mesenchymal stem cells; mean ± SEM; read-out: Cytotoxicity (IC50) MSCs
Measured pIC50, listed per entry for reference.
Notebook: values listed as pIC50 are -log10 of the concentration (mol/L).

Cpd Smiles | pIC50
C=CCc1cccc(/C=N/NC(=O)CN2C(=O)Cc3ccccc32)c1O | 4.82

Kindly note the recorded pIC50 for O=C(CN1C(=O)Cc2ccccc21)N/N=C/c1ccccc1O , which is 4.63

* * *

Parameter Measured: melting point

Observe how each entry below is paired with its result.
Compound | melting point
O=C(CN1C(=O)Cc2ccccc21)N/N=C1\C(=O)Nc2ccc(Cl)cc21 [Compound 5b] | 201 to 202 °C
O=C(CN1C(=O)Cc2ccccc21)N/N=C/c1ccccc1 [Compound 4a] | 167 to 168 °C
O=C(CN1C(=O)Cc2ccccc21)N/N=C/c1cccc(Cl)c1 [Compound 4c] | 181 to 182 °C
O=C(CN1C(=O)Cc2ccccc21)N/N=C1\C(=O)Nc2ccccc21 [Compound 5a] | 191 to 192 °C

Kindly note the recorded melting point for O=C(CN1C(=O)Cc2ccccc21)N/N=C/c1ccccc1O [Compound 4f] , which is 173 to 174 °C

Kindly note the recorded melting point for Cc1ccc2c(c1)/C(=N/NC(=O)CN1C(=O)Cc3ccccc31)C(=O)N2 [Compound 5c] , which is 198 to 199 °C

Kindly note the recorded melting point for O=C(CN1C(=O)Cc2cc(F)ccc21)N/N=C/c1ccccc1Cl [Compound 4j] , which is 185 to 186 °C

Kindly note the recorded melting point for O=C(CN1C(=O)Cc2cc(F)ccc21)N/N=C/c1ccccc1 [Compound 4i] , which is 173 to 174 °C

Kindly note the recorded melting point for O=C(CN1C(=O)Cc2ccccc21)N/N=C/c1ccccc1Cl [Compound 4b] , which is 179 to 181 °C

Where do the numbers come from? From paper PMC8861050.
